Quick list: solubility per entry.
run_description: Solubility of the compound in phosphate buffer saline
Type: physicochemical
Report the value in µM with no unit label.

C[C@H](CO)N1C[C@H](C)[C@H](CN(C)Cc2ccc(Oc3ccccc3)cc2)Oc2c(NC(=O)c3ccncc3)cccc2C1=O: 98
C[C@H]1CN([C@@H](C)CO)C(=O)c2cccc(NC(=O)c3ccncc3)c2O[C@H]1CN(C)Cc1ccc(Oc2ccccc2)cc1: 93
C[C@H]1CN([C@@H](C)CO)C(=O)c2cccc(NC(=O)c3ccncc3)c2O[C@@H]1CN(C)Cc1ccccc1: 100

Tell me the measured solubility of C[C@@H]1CN([C@@H](C)CO)C(=O)c2cccc(NC(=O)c3ccncc3)c2O[C@@H]1CN(C)Cc1ccc(Oc2ccccc2)cc1 , please.
87

Data origin: ChEMBL document CHEMBL3108709
